# measured-on: human recombinant HDAC6 (Homo sapiens, UniProt Q9UBN7)
# Construct: purchased Calbiochem 382180
# Sequence (Q9UBN7 whole entry): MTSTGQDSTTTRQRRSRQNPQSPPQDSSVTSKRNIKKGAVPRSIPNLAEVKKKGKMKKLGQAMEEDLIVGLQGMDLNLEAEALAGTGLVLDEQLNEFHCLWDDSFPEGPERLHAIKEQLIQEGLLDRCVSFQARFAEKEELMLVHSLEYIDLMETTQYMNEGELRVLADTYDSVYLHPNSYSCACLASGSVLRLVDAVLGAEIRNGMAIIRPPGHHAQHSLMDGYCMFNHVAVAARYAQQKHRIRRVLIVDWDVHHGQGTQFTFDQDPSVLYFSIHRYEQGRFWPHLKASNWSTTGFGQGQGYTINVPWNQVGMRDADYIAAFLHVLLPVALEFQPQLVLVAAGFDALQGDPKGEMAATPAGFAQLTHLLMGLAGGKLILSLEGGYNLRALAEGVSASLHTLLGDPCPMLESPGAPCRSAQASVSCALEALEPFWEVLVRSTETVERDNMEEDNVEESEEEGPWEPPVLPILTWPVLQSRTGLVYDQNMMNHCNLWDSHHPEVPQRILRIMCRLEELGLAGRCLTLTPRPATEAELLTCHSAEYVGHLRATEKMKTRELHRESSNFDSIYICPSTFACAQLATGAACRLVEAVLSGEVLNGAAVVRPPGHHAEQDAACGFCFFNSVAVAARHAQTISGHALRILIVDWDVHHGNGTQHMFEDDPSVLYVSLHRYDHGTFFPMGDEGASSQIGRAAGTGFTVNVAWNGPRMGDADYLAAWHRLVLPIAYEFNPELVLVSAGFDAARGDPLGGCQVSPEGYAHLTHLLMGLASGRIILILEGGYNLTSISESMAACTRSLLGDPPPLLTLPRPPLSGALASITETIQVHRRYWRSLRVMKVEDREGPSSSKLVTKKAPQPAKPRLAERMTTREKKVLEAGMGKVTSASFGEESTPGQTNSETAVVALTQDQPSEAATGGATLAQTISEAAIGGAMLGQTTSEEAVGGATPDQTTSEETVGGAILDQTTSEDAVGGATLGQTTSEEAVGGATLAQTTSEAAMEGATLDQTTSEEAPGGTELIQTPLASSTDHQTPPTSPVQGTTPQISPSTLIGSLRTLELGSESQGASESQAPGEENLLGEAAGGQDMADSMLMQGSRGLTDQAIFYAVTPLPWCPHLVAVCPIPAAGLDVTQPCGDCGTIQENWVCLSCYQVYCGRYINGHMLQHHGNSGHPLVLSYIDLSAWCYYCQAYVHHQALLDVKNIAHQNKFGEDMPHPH
# assay: HDAC6 enzyme activity inhibition assay (HDAC Fluorimetric Drug Discovery Kit)
# Type: biochemical
# particulars: HDAC6 over HDAC1
measured-quantity: HDAC6 selectivity (fold)

Known results for molecules:
chemical_smiles=O=C(N1CCS(=O)(=O)CC1)N(Cc1ccc(-c2nnc(C(F)(F)F)o2)cc1)c1ccccc1F measured_quantity="HDAC6 selectivity (fold)" u=fold test_result=196
chemical_smiles=CC(=O)N1CCCN(CCNC(=O)N(Cc2ccc(-c3nnc(C(F)F)o3)cc2F)c2ccccc2)CC1 measured_quantity="HDAC6 selectivity (fold)" u=fold test_result=85
chemical_smiles=CCN1CCN(C(=O)N(Cc2ccc(-c3nnc(C(F)F)o3)cn2)c2ccc(F)cc2)CC1 measured_quantity="HDAC6 selectivity (fold)" u=fold test_result=388
chemical_smiles=O=C(NCCN1CCN(CCc2ccncc2)CC1)N(Cc1ccc(-c2nnc(C(F)F)o2)cc1F)c1ccccc1 measured_quantity="HDAC6 selectivity (fold)" u=fold test_result=105
chemical_smiles=Cc1ccc(N(Cc2ccc(-c3nnc(C(F)F)o3)cc2F)C(=O)N2CCOCC2)c(F)c1 measured_quantity="HDAC6 selectivity (fold)" u=fold test_result=105
chemical_smiles=O=C(N1CCC2(CC1)CNC2)N(Cc1ccc(-c2nnc(C(F)F)o2)cc1F)c1ccccc1 measured_quantity="HDAC6 selectivity (fold)" u=fold test_result=294
chemical_smiles=CN1CCN(C(=O)N(CCc2ccccc2)Cc2ccc(-c3nnc(C(F)F)o3)cc2F)CC1 measured_quantity="HDAC6 selectivity (fold)" u=fold test_result=65

A = CCN1CCN(C(=O)N(Cc2ccc(-c3nnc(C(F)(F)F)o3)cn2)c2ccc(OC)cc2)CC1
B = CC(C)(C)c1ccc(N(Cc2ccc(-c3nnc(C(F)(F)F)o3)cc2)C(=O)N2CCS(=O)(=O)CC2)cc1
C = O=C(N1CCS(=O)(=O)CC1)N(Cc1ccc(-c2nnc(C(F)F)o2)cc1F)c1ccccc1
D = CN1CCCN(C(=O)N(Cc2ccc(-c3nnc(C(F)(F)F)o3)cc2)c2ccccc2)CC1
E = COc1cccc(N(Cc2ccc(-c3nnc(C(F)(F)F)o3)cc2)C(=O)N2CCS(=O)(=O)CC2)c1
Qu. Please put the entries in order of rising HDAC6 selectivity (fold). Arrange the labels as the request states and list them.
Ans. B, E, A, D, C
(B: 1 fold, E: 18 fold, A: 46 fold, D: 132 fold, C: 400 fold)

###

# measured-on: human recombinant HDAC6 (Homo sapiens, UniProt Q9UBN7)
# Construct: purchased Calbiochem 382180
# assay: HDAC6 enzyme activity inhibition assay (HDAC Fluorimetric Drug Discovery Kit)
# Assay type: biochemical
# particulars: HDAC6 over HDAC1
measured-quantity: HDAC6 selectivity (fold)

Some entries whose results are on file:
chemical_smiles=COc1ccccc1CCN(Cc1ccc(-c2nnc(C(F)F)o2)cc1F)C(=O)N1CCN(C)CC1 u=fold test_result=36
chemical_smiles=O=C(N1CCS(=O)(=O)CC1)N(Cc1ccc(-c2nnc(C(F)F)o2)cc1F)c1ccc(CN2CCN(C3COC3)CC2)cc1 u=fold test_result=82
chemical_smiles=O=C(N1CCS(=O)(=O)CC1)N(Cc1ccc(-c2nnc(C(F)F)o2)cc1)c1cccc(C(F)(F)F)n1 u=fold test_result=53

1 = O=C(N1CCOCC1)N(CCc1ccc(-c2nnc(C(F)(F)F)o2)cc1)c1ccccc1
2 = O=C(N1CCN(C2COC2)CC1)N(Cc1ccc(-c2nnc(C(F)F)o2)cc1)c1cccc(Cl)c1
Qu. Which record would sort first by descending HDAC6 selectivity (fold), 1 or 2 ? Answer by stating the label of the chosen item.
Ans. 2
